Value source: patent US9828385B2

STUDY SYSTEM: human V1a receptor (Homo sapiens)
Construct: expressed in transfected cells; host or cells: HEK293 cells, transiently transfected; cell membranes
Sequence (P37288 whole entry): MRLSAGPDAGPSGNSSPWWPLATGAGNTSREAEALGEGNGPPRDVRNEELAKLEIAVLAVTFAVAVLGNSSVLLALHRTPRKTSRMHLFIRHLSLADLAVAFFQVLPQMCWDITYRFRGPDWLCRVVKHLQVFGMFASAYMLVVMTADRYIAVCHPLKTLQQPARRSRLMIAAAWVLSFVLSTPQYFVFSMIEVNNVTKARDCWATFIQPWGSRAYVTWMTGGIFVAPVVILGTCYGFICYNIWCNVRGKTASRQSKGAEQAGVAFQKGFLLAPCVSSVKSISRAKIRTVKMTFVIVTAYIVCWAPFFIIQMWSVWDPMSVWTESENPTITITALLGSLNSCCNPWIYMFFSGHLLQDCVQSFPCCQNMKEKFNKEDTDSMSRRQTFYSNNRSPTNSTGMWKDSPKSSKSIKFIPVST
METHOD: human V1a receptor binding studies (3H-Vasopressin, SPA beads)
ASSAY CONTEXT: membranes of HEK293 cells transiently transfected with human V1a receptor, Ki by Cheng-Prussoff from IC50, read-out: pKi hV1a (converted)
Sorting guide: entries reporting Ki beneath 10 nM go in the true (1) pile, the rest go in the false (0) pile.

{"COMPOUND": "C=C(C)CC1OC(N2CCC3(CC2)OCc2ccccc23)=NC1=O (centres unmarked)", "STUDY SYSTEM": "human V1a receptor (Homo sapiens)", "CAT": "true (1)"}
{"COMPOUND": "CCCCC1OC(N2CCC3(CC2)OC(=O)c2ccccc23)=NC1=O (single isomer, unassigned; enantiomer a) [Example 5]", "STUDY SYSTEM": "human V1a receptor (Homo sapiens)", "CAT": "false (0)"}
{"COMPOUND": "O=C1N=C(N2CCC3(CC2)OCc2ccccc23)OC1C(O)c1ccccc1 (single isomer, unassigned) [Example 37]", "STUDY SYSTEM": "human V1a receptor (Homo sapiens)", "CAT": "false (0)"}
{"COMPOUND": "CC1(CC2CCCC2)OC(N2CCC3(CC2)OCc2ccccc23)=NC1=O (centres unmarked) [Example 76]", "STUDY SYSTEM": "human V1a receptor (Homo sapiens)", "CAT": "true (1)"}
{"COMPOUND": "O=C1N=C(N2CCC3(CC2)OCc2ccccc23)OC1C(O)c1ccc(Cl)cc1 (single isomer, unassigned; diastereomer b) [Example 45]", "STUDY SYSTEM": "human V1a receptor (Homo sapiens)", "CAT": "false (0)"}
{"COMPOUND": "O=C1N=C(N2CCC3(CC2)OCc2ccccc23)OC1C(F)c1ccc(Cl)cc1 (single isomer, unassigned) [Example 49]", "STUDY SYSTEM": "human V1a receptor (Homo sapiens)", "CAT": "true (1)"}
{"COMPOUND": "CCCCC1(C)OC(N2CCC3(CC2)OCc2ccccc23)=NC1=O (centres unmarked) [Example 66]", "STUDY SYSTEM": "human V1a receptor (Homo sapiens)", "CAT": "false (0)"}
{"COMPOUND": "CCCCCC1CCC2(CC1)OC(N1CCC3(CC1)OC(=O)c1ccccc13)=NC2=O (single isomer, unassigned; diastereomer b) [Example 127]", "STUDY SYSTEM": "human V1a receptor (Homo sapiens)", "CAT": "false (0)"}
{"COMPOUND": "CC1(Cc2ccccc2)OC(N2CCC3(CC2)OC(=O)c2ccccc23)=NC1=O (single isomer, unassigned; enantiomer a) [Example 72]", "STUDY SYSTEM": "human V1a receptor (Homo sapiens)", "CAT": "false (0)"}
{"COMPOUND": "CC#CCC1OC(N2CCC3(CC2)OCc2ccccc23)=NC1=O (centres unmarked)", "STUDY SYSTEM": "human V1a receptor (Homo sapiens)", "CAT": "false (0)"}
{"COMPOUND": "O=C1OC2(CCN(C3=NC(=O)C(Cc4ccccc4)O3)CC2)c2ccccc21 (single isomer, unassigned; enantiomer b) [Example 21]", "STUDY SYSTEM": "human V1a receptor (Homo sapiens)", "CAT": "true (1)"}
{"COMPOUND": "C=C(CC1OC(N2CCC3(CC2)OCc2ccccc23)=NC1=O)C(F)(F)F (centres unmarked)", "STUDY SYSTEM": "human V1a receptor (Homo sapiens)", "CAT": "true (1)"}
{"COMPOUND": "O=C1N=C(N2CCC3(CC2)OCc2ccccc23)OC1C(O)c1ccccc1 (single isomer, unassigned) [Example 39]", "STUDY SYSTEM": "human V1a receptor (Homo sapiens)", "CAT": "false (0)"}
{"COMPOUND": "C#CCC1(CC(=C)C(=O)OCC)OC(N2CCC3(CC2)OCc2ccccc23)=NC1=O (centres unmarked)", "STUDY SYSTEM": "human V1a receptor (Homo sapiens)", "CAT": "false (0)"}
{"COMPOUND": "O=C1N=C(N2CCC3(CC2)SCc2ccccc23)OC1Cc1ccccc1 (centres unmarked)", "STUDY SYSTEM": "human V1a receptor (Homo sapiens)", "CAT": "false (0)"}
{"COMPOUND": "CCOC(=O)C1[C@H]2CC3(C[C@@H]12)OC(N1CCC2(CC1)OCc1ccccc12)=NC3=O (single isomer, unassigned; diastereomer b) [Example 149]", "STUDY SYSTEM": "human V1a receptor (Homo sapiens)", "CAT": "false (0)"}
{"COMPOUND": "C=CCC1(CC(=C)C(=O)OCC)OC(N2CCC3(CC2)OCc2ccccc23)=NC1=O (centres unmarked)", "STUDY SYSTEM": "human V1a receptor (Homo sapiens)", "CAT": "false (0)"}
{"COMPOUND": "O=C1N=C(N2CCC3(CC2)c2ccccc2CS3(=O)=O)OC12Cc1ccccc1C2", "STUDY SYSTEM": "human V1a receptor (Homo sapiens)", "CAT": "true (1)"}
{"COMPOUND": "CC(=O)O[C@H]1CC2(C[C@H]1OC(C)=O)OC(N1CCC3(CC1)OCc1ccccc13)=NC2=O (single isomer, unassigned; diastereomer b) [Example 121]", "STUDY SYSTEM": "human V1a receptor (Homo sapiens)", "CAT": "true (1)"}
{"COMPOUND": "O=C1N=C(N2CCC3(CC2)OCc2ccccc23)OC1Cc1ccc(Cl)cc1 (centres unmarked)", "STUDY SYSTEM": "human V1a receptor (Homo sapiens)", "CAT": "true (1)"}
{"COMPOUND": "CC1(CN2CCCC2)OC(N2CCC3(CC2)OCc2ccccc23)=NC1=O (centres unmarked)", "STUDY SYSTEM": "human V1a receptor (Homo sapiens)", "CAT": "false (0)"}
{"COMPOUND": "O=C1OC2(CCN(C3=NC(=O)C(Cc4ccccc4)O3)CC2)c2ccccc21 (single isomer, unassigned; enantiomer a) [Example 20]", "STUDY SYSTEM": "human V1a receptor (Homo sapiens)", "CAT": "false (0)"}
{"COMPOUND": "O=C1N=C(N2CCC3(CC2)OCc2ccccc23)O[C@]12C[C@H]1CC(F)(F)C[C@H]1C2", "STUDY SYSTEM": "human V1a receptor (Homo sapiens)", "CAT": "true (1)"}
{"COMPOUND": "CO[C@H]1CC2(C[C@H]1OC)OC(N1CCC3(CC1)OCc1ccccc13)=NC2=O (single isomer, unassigned; diastereomer a)", "STUDY SYSTEM": "human V1a receptor (Homo sapiens)", "CAT": "false (0)"}
{"COMPOUND": "CC1(C(O)c2ccc(Cl)cc2)OC(N2CCC3(CC2)OCc2ccccc23)=NC1=O (centres unmarked)", "STUDY SYSTEM": "human V1a receptor (Homo sapiens)", "CAT": "false (0)"}
{"COMPOUND": "CCOCC1(C)OC(N2CCC3(CC2)OCc2ccccc23)=NC1=O (single isomer, unassigned; (-)) [Example 97]", "STUDY SYSTEM": "human V1a receptor (Homo sapiens)", "CAT": "false (0)"}
{"COMPOUND": "CC1(Cc2ccc(Cl)cc2)OC(N2CCC3(CC2)OC(=O)c2ccccc23)=NC1=O (single isomer, unassigned; enantiomer b) [Example 81]", "STUDY SYSTEM": "human V1a receptor (Homo sapiens)", "CAT": "false (0)"}
